Source listed as ChEMBL document CHEMBL1201861.

# Tested on: NCI-H1563;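 note: growth inhibition of human NCI-H1563 cells, read out with a cell viability assay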
# assay name: cells
# Assay type: functional, cell-based
# condition description: Homo sapiens
# Description: SANGER: Inhibition of human NCI-H1563 cell growth in a cell viability assay.
Give IC50 for every item shown.

As a guide, the following entries are already answered.
Reported IC50 of O=S(=O)(O)c1ccc2cc(/N=N/c3cc(S(=O)(=O)O)c4cccnc4c3O)ccc2c1 : > 16 µM

For record O=C(NCCCNc1nc(Nc2cccc(NC(=O)N3CCCC3)c2)ncc1I)c1cccs1 the listed IC50 is > 5 µM

Quick note, IC50 for OC[C@H](Cc1ccccc1)Nc1nc(Oc2ccc3c(c2)CCC3)nc2c1ncn2Cc1ccc(-c2ccccc2)cc1 landed at > 10.2 µM

Looking up CC1=C(/C=C/C(C)=C/C=C/C(C)=C/C(=O)O)C(C)(C)CCC1 , I see its IC50 listed as > 10 µM

// moving on: another record for IC50
# compound NC(=O)c1ccc(N(C(N)=O)c2c(F)cccc2F)nc1-c1ccc(F)cc1F ; its IC50 = > 2 µM

* * *

# Tested on: SR
# assay name: cells
# Assay type: functional, cell-based, Homo sapiens
# condition description: Homo sapiens, SR
# Description: SANGER: Inhibition of human SR cell growth in a cell viability assay.
endpoint name: IC50

So for C=CC(=O)N1CCCC(Nc2nc(Nc3ccc(N(C)C(=O)CC)cc3)nc3[nH]cnc23)C1 (configuration not stated) , the logged IC50 turned out to be > 10.2 µM

Next:
# IC50 (molecule: O=S(=O)(O)c1ccc2cc(/N=N/c3cc(S(=O)(=O)O)c4cccnc4c3O)ccc2c1 ) is > 16 µM

* * *

# Test system: MHH-PREB-1;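 note: cell viability assay measuring inhibition of proliferation of human MHH-PREB-1 cells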
# assay name: cells
# Assay type: functional, cell-based, Homo sapiens
# condition description: Homo sapiens, MHH-PREB-1
# Description: SANGER: Inhibition of human MHH-PREB-1 cell growth in a cell viability assay.
Can you tell me pIC50 for the items I'm about to list?
One number for each entry, as −log10 of the molar value.

Check out these entries, answers already filled in.
// recorded pIC50 for CN(NC(=O)CC(=O)NN(C)C(=S)c1ccccc1)C(=S)c1ccccc1 [ELESCLOMOL] : 7.94

// pIC50 value for CC(C)C[C@H](NC(=O)[C@H](Cc1ccccc1)NC(=O)c1cnccn1)B(O)O [BORTEZOMIB] : 8.31

As a next step, examine the compound that follows.
Lab note: O=C1NC(=O)c2c1c(-c1ccccc1Cl)cc1[nH]c3ccc(O)cc3c21 gave pIC50 of 6.28

* * *

Hi there, I'd appreciate the recorded pIC50 for every entry that follows.
# Tested on: NCI-H1155;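 note: cell growth inhibition measured by a viability assay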
# assay name: cells
# Type: functional, cell-based, Homo sapiens
# condition description: Homo sapiens, NCI-H1155
# Description: SANGER: Inhibition of human NCI-H1155 cell growth in a cell viability assay.
pIC50: −log10 of the molar value.

// pIC50 lookup, compound = CN(C)CCOc1ccc(-c2nc(-c3ccncc3)c(-c3ccc4c(c3)CC/C4=N\O)[nH]2)cc1 [SB590885] , result: < 5.30

I'm hoping you can list pIC50 for every compound here, please.
1. C[C@@H](Oc1cc(-c2cnn(C3CCNCC3)c2)cnc1N)c1c(Cl)ccc(F)c1Cl [CRIZOTINIB]
2. O=S(=O)(O)c1ccc2cc(/N=N/c3cc(S(=O)(=O)O)c4cccnc4c3O)ccc2c1
3. COC(=O)[C@H](CCSC)NC(=O)c1ccc(NC[C@@H](N)CS)cc1-c1ccccc1
4. CS(=O)(=O)N1CCN(Cc2cc3nc(-c4cccc5[nH]ncc45)nc(N4CCOCC4)c3s2)CC1 [PICTILISIB]
5. COc1ccc(N(C(=O)Oc2c(C)cccc2C)c2ccnc(Nc3ccc(N4CCN(C)CC4)cc3)n2)c(OC)c1
6. COc1cc(N2CCC(N3CCN(C)CC3)CC2)ccc1Nc1ncc(Cl)c(Nc2ccccc2S(=O)(=O)C(C)C)n1 [TAE-684]
7. Cc1ccc(NC(=O)c2ccc(CN3CCN(C)CC3)cc2)cc1Nc1nccc(-c2cccnc2)n1 [IMATINIB]

Completion:
< 5.70
< 4.80
< 5.99
< 5.40
< 5.29
< 5.70
< 5.70
